Here, each record is paired with measured pIC50 data.
Test system: NCI H460
Assay: Antiproliferation MTT assay, NCI H460
Assay type: cell-based
Details: Homo sapiens, Lung Cancer
# log scale: pIC50 equals minus log10 of the concentration in mol/L

Nc1ncc(-c2cn3cc(CN4CCN(c5ncc(C(=O)NO)cn5)CC4)nc3c(N3CCOCC3)n2)cn1; 5.62

Query compound follows.
Which pIC50 is reported for this compound? "CN(Cc1cn2cc(-c3cnc(N)nc3)nc(N3CCOCC3)c2n1)c1ncc(C(=O)NO)cn1" 5.77

----------
Test system: phospho-Akt1 (Ser473) protein
Experiment: PI3K cellular activity (Elisa assay), AKT phosphorylation in SKMEL cells
Type: cell-based
Conditions: inhibition of phosphorylation of AKT, read-out: AKT_P_SKMEL_ELISA_EC50
Here, each record is paired with measured EC50 data.

Nc1ncc(-c2cn3cc(CN4CCN(c5ncc(C(=O)NO)cn5)CC4)nc3c(N3CCOCC3)n2)cn1 [Final Compound 2]; 70 nM

Which EC50 is reported for this compound? CN(Cc1cn2cc(-c3cnc(N)nc3)nc(N3CCOCC3)c2n1)c1ncc(C(=O)NO)cn1 [Final Compound 3] 1940 nM

Which EC50 is reported for this compound? Nc1ncc(-c2cn3cc(CNc4ncc(C(=O)NO)cn4)nc3c(N3CCOCC3)n2)cn1 [Final Compound 1] 330 nM
